measurement_description: Stability in mouse liver microsomes assessed as remaining compound level at 1 uM incubated for 5 mins in presence of NADPH measured after 30 mins by LC/MS/MS method
Format: ADME
settings: read-out: Stability
# remaining at 0.5 h, 1 µM listing for each entry below

- smiles_notation: "COc1ccc(CO[C@H]([C@H](OCc2ccc(OC)cc2)c2cnc(N(C)C)nc2)[C@@H](COC(c2ccccc2)(c2ccccc2)c2ccccc2)OS(C)(=O)=O)cc1"
  remaining at 0.5 h, 1 µM, %: 88.6
- smiles_notation: "COc1ccc(CO[C@@H]([C@H](COC(c2ccccc2)(c2ccccc2)c2ccccc2)N=[N+]=[N-])[C@H](OCc2ccc(OC)cc2)c2cnc(N(C)C)nc2)cc1"
  remaining at 0.5 h, 1 µM, %: 81.6

* * *

measurement_description: Tmax in Sprague-Dawley rat at 5 mg/kg, ip
Assay type: ADME, organism-based
Set-up: dose 5 mg/kg, route intraperitoneal
settings: in vivo
# Tmax listing for each entry below
property: Tmax (h)

- smiles_notation: "COc1ccc(CO[C@@H]([C@H](COC(c2ccccc2)(c2ccccc2)c2ccccc2)N=[N+]=[N-])[C@H](OCc2ccc(OC)cc2)c2cnc(N(C)C)nc2)cc1"
  value: 4
- smiles_notation: "COc1ccc(CO[C@H]([C@H](OCc2ccc(OC)cc2)c2cnc(N(C)C)nc2)[C@@H](COC(c2ccccc2)(c2ccccc2)c2ccccc2)OS(C)(=O)=O)cc1"
  value: 1

* * *

Tested on: Plasmodium falciparum
measurement_description: Antimalarial activity against tightly synchronized Plasmodium falciparum K1 assessed as parasite stage accumulation index at schizonts stages at 10 uM treated at 18 hrs post-invasion for continuous duration of 36 hrs by automated image mining based cytological profiling assay
Type: functional
property: Activity

- compound: "C[C@@H]1CC[C@H]2[C@@H](C)C(=O)O[C@@H]3O[C@@]4(C)CC[C@@H]1[C@]32OO4 [ARTEMISININ]"
  study_target: "Plasmodium falciparum"
  value: 0.26
- compound: "CC(=O)N[C@@H]1[C@@H](O)[C@H](O)[C@@H](CO)O[C@H]1O [N-ACETYLGLUCOSAMINE]"
  study_target: "Plasmodium falciparum"
  value: 0.64
- compound: "CCN(CC)CCCC(C)Nc1ccnc2cc(Cl)ccc12 (centres undefined) [CHLOROQUINE]"
  study_target: "Plasmodium falciparum"
  value: 0.37
- compound: "CC(C)C[C@H](NC(=O)[C@H]1O[C@@H]1C(=O)O)C(=O)NCCCCN=C(N)N [E-64]"
  study_target: "Plasmodium falciparum"
  value: 2.11

* * *

measurement_description: AUC in Sprague-Dawley rat at 1 mg/kg, ip
Assay type: ADME, organism-based
Design: dose 1 mg/kg, route intraperitoneal
settings: plasma

- smiles_notation: "COc1ccc(CO[C@H]([C@H](OCc2ccc(OC)cc2)c2cnc(N(C)C)nc2)[C@@H](COC(c2ccccc2)(c2ccccc2)c2ccccc2)OS(C)(=O)=O)cc1"
  AUC [ng·h/mL]: 9790
- smiles_notation: "COc1ccc(CO[C@@H]([C@H](COC(c2ccccc2)(c2ccccc2)c2ccccc2)N=[N+]=[N-])[C@H](OCc2ccc(OC)cc2)c2cnc(N(C)C)nc2)cc1"
  AUC [ng·h/mL]: 8200

* * *

measurement_description: Cytotoxicity against human HepG2 cells after 48 hrs by resazurin based assay
Assay type: cell-based

- smiles_notation: "C[C@@H]1[C@H](O)[C@@H](C)/C=C/C=C/C=C/C=C/C=C/C=C/C=C/[C@H](O[C@@H]2O[C@H](C)[C@@H](O)[C@H](N)[C@@H]2O)C[C@@H]2O[C@](O)(C[C@@H](O)C[C@@H](O)[C@H](O)CC[C@@H](O)C[C@@H](O)CC(=O)O[C@H]1C)C[C@H](O)[C@H]2C(=O)O"
  CC50 at 48 h [µM]: 40

* * *

measurement_description: Selectivity index, ratio of CC50 for human HepG2 cells to EC50 for Plasmodium falciparum
Format: toxicity, cell-based
settings: read-out: Ratio CC50/EC50
# selectivity ratio listing for each entry below
property: selectivity ratio

- smiles_notation: "COc1ccc(CO[C@H]([C@H](OCc2ccc(OC)cc2)c2cnc(N(C)C)nc2)[C@@H](COC(c2ccccc2)(c2ccccc2)c2ccccc2)OS(C)(=O)=O)cc1"
  property: "selectivity ratio"
  value: "> 680"
- smiles_notation: "COc1ccc(CO[C@@H]([C@H](COC(c2ccccc2)(c2ccccc2)c2ccccc2)N=[N+]=[N-])[C@H](OCc2ccc(OC)cc2)c2cnc(N(C)C)nc2)cc1"
  property: "selectivity ratio"
  value: "> 1000"

* * *

measurement_description: AUC in Sprague-Dawley rat at 5 mg/kg, ip
Type: ADME, organism-based
Set-up: dose 5 mg/kg, route intraperitoneal
settings: plasma
property: AUC (ng·h/mL)

- smiles_notation: "COc1ccc(CO[C@@H]([C@H](COC(c2ccccc2)(c2ccccc2)c2ccccc2)N=[N+]=[N-])[C@H](OCc2ccc(OC)cc2)c2cnc(N(C)C)nc2)cc1"
  property: "AUC"
  value: 26600
- smiles_notation: "COc1ccc(CO[C@H]([C@H](OCc2ccc(OC)cc2)c2cnc(N(C)C)nc2)[C@@H](COC(c2ccccc2)(c2ccccc2)c2ccccc2)OS(C)(=O)=O)cc1"
  property: "AUC"
  value: 41300

* * *

# half-life listing for each entry below
measurement_description: Half life in Sprague-Dawley rat at 5 mg/kg, ip
Format: ADME, organism-based
Set-up: dose 5 mg/kg, route intraperitoneal
settings: in vivo

- smiles_notation: "COc1ccc(CO[C@@H]([C@H](COC(c2ccccc2)(c2ccccc2)c2ccccc2)N=[N+]=[N-])[C@H](OCc2ccc(OC)cc2)c2cnc(N(C)C)nc2)cc1"
  half-life, h: 5.78
- smiles_notation: "COc1ccc(CO[C@H]([C@H](OCc2ccc(OC)cc2)c2cnc(N(C)C)nc2)[C@@H](COC(c2ccccc2)(c2ccccc2)c2ccccc2)OS(C)(=O)=O)cc1"
  half-life, h: 10.6

* * *

measurement_description: Tmax in Sprague-Dawley rat at 1 mg/kg, ip
Format: ADME, organism-based
Design: dose 1 mg/kg, route intraperitoneal
settings: in vivo
property: Tmax (h)

- smiles_notation: "COc1ccc(CO[C@@H]([C@H](COC(c2ccccc2)(c2ccccc2)c2ccccc2)N=[N+]=[N-])[C@H](OCc2ccc(OC)cc2)c2cnc(N(C)C)nc2)cc1"
  property: "Tmax"
  units_symbol: "h"
  value: 3.4
- smiles_notation: "COc1ccc(CO[C@H]([C@H](OCc2ccc(OC)cc2)c2cnc(N(C)C)nc2)[C@@H](COC(c2ccccc2)(c2ccccc2)c2ccccc2)OS(C)(=O)=O)cc1"
  property: "Tmax"
  units_symbol: "h"
  value: 1

* * *

measurement_description: Cmax in Sprague-Dawley rat at 1 mg/kg, ip
Type: ADME, organism-based
Set-up: dose 1 mg/kg, route intraperitoneal
settings: in vivo
# Cmax listing for each entry below
property: Cmax (ng/mL)

- smiles_notation: "COc1ccc(CO[C@@H]([C@H](COC(c2ccccc2)(c2ccccc2)c2ccccc2)N=[N+]=[N-])[C@H](OCc2ccc(OC)cc2)c2cnc(N(C)C)nc2)cc1"
  value: 1030
- smiles_notation: "COc1ccc(CO[C@H]([C@H](OCc2ccc(OC)cc2)c2cnc(N(C)C)nc2)[C@@H](COC(c2ccccc2)(c2ccccc2)c2ccccc2)OS(C)(=O)=O)cc1"
  value: 1800

* * *

Test system: Plasmodium falciparum
measurement_description: Antimalarial activity against tightly synchronized Plasmodium falciparum HB3 assessed as parasite stage accumulation index at late ring stages at 10 uM treated at 6 hrs post-invasion for continuous duration of 36 hrs by automated image mining based cytological profiling assay
Format: functional

- compound: "CC(C)C[C@H](NC(=O)[C@H]1O[C@@H]1C(=O)O)C(=O)NCCCCN=C(N)N"
  Activity: 1.15
- compound: "CCN(CC)CCCC(C)Nc1ccnc2cc(Cl)ccc12 (centres undefined)"
  Activity: 3.05
- compound: "CC(=O)N[C@@H]1[C@@H](O)[C@H](O)[C@@H](CO)O[C@H]1O"
  Activity: 2.14
- compound: "C[C@@H]1CC[C@H]2[C@@H](C)C(=O)O[C@@H]3O[C@@]4(C)CC[C@@H]1[C@]32OO4"
  Activity: 3.53

# credit: ChEMBL document CHEMBL3352416
